procedureSummary: HRO761 blood PK in SW48 tumour-bearing mice
Assay type: in vivo, mouse
experimentalParameters: female, mouse, whole blood, oral, 60 mg/kg, Free HRO761 blood concentration, Mean; 2 h
measurementType: concentration at 2 h (nM)
Numbers only, in nM.

Query: Any idea what concentration at 2 h was measured for CCc1c(N2CCN(C(=O)c3ncnc(C)c3O)CC2)c(=O)n2nc(C3=CCOCC3)nc2n1CC(=O)Nc1ccc(C(F)(F)F)cc1Cl ?
Result: 900

* * *

procedureSummary: Compound 3 blood PK in SW48 tumour-bearing mice
Assay type: in vivo, mouse
experimentalParameters: female, mouse, whole blood, oral, 50 mg/kg, 50mg/kg BID; 1 h; single mouse; read-out: Total blood concentration
Experimental: All animal studies were conducted in accordance with ethics and procedures covered by permit BS-2275 and BS-1975 issued by the Kantonales Veterinäramt Basel-Stadt and in strict adherence to guidelines of the Eidgenössisches Tierschutzgesetz and the Eidgenössische Tierschutzverordnung, Switzerland. All animal studies were approved by the internal ethics committee. All animals had access to food and water ad libitum and were identified with transponders. […]
measurementType: concentration at 1 h (µM)
Answers are plain numbers, in µM.

Query: Reported concentration at 1 h, compound CCc1c(N2CCN(C(=O)c3ncccc3O)CC2)c(=O)n2nc(C3=CCOCC3)nc2n1CC(=O)Nc1ccc(C(F)(F)F)cc1C : ____
Result: 4.62
